Consider the following compounds; for each one, report its log10 IC50.
Experimental Target: MEF2D/HDAC4 protein-protein interactions (Homo sapiens (Human))
Sequence (Q14814 whole entry, species assumed): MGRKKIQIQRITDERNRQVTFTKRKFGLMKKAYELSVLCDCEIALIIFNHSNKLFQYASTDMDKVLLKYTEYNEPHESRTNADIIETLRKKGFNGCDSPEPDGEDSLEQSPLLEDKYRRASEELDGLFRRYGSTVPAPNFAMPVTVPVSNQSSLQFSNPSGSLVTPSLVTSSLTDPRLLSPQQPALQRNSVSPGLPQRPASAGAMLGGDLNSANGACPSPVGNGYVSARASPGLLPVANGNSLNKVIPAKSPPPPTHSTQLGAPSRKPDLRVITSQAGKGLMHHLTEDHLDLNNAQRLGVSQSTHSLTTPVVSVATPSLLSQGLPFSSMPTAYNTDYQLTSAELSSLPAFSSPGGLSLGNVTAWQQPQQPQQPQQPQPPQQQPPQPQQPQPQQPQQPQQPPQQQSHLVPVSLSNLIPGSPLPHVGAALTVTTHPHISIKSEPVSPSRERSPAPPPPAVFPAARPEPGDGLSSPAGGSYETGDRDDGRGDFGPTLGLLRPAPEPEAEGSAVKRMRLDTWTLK
Experimental Details: Mammalian two-hybrid assay, inhibition of MEF2D and HDAC4 protein interactions (luciferase reporter in HeLa cells)
Measurement Context: HeLa cells co-transfected with GAL4-MEF2D, HDAC4-VP16 and Gal4Luc; overnight treatment; luciferase normalized to Renilla
Record value = log10 of IC50 given in nM.

Here is how some compounds turned out for log10 IC50.
> print(dat)
                                   compound    endpoint  test.result
1  O=C(CCCC[C@@H](NC(=O)c1ccccn1)C(=O)Nc1cccc(Br)c1)NO  log10 IC50         2.97
2       O=C(/C=C/c1cccc(CNc2ccc(F)cc2)c1)NO  log10 IC50         3.00
3  Nc1ccccc1NC(=O)/C=C/c1cccc(CNCc2cccc(OC3CCC3)c2)c1  log10 IC50         3.18

Quick request: log10 IC50 for each listed item, please.
1. O=C(/C=C/c1cccc(CNc2ccc(F)c(F)c2)c1)NO
2. O=C(/C=C/c1cccc(CNc2ccc(F)cc2F)c1)NO
3. COc1cccc(NCc2cccc(/C=C/C(=O)NO)c2)c1
4. Cc1nnc(NCc2cccc(/C=C/C(=O)NO)c2)s1
5. COC(=O)N[C@H](CCCCC(=O)Nc1ccccc1N)C(=O)Nc1cccc(Br)c1

1: 3.01; 2: 2.98; 3: 2.51; 4: 3.06; 5: 3.14

Would you be so kind as to report log10 IC50 for each listed record?
1. Nc1ccccc1NC(=O)CCCCC(NC(=O)c1ccccc1)C(=O)Nc1ccncc1 (centres unmarked)
2. Nc1ccccc1NC(=O)/C=C/c1cccc(CNc2cccc(N3CCCCC3)c2)c1
3. CC(C)Oc1cccc(NCc2cccc(/C=C/C(=O)Nc3ccccc3N)c2)c1
4. CCOC(=O)NC(CCCCC(=O)NO)C(=O)Nc1cccc(Br)c1 (centres unmarked)
5. O=C(CCCC[C@@H](NC(=O)c1ccccc1)C(=O)NC1CC1)NO
6. CCOC(=O)NC(CCCCC(=O)Nc1ccccc1N)C(=O)Nc1ccccc1 (centres unmarked)
7. Nc1ccccc1NC(=O)CCCCC(NC(=O)c1cccnc1)C(=O)Nc1cccc(Br)c1 (centres unmarked)
8. CCN(C)c1cccc(NCc2cccc(/C=C/C(=O)NO)c2)c1

[3.44, 3.39, 5.28, 2.41, 3.40, 3.16, 2.79, 2.41]

// for each compound below, give its log10 IC50
1. Nc1ccccc1NC(=O)CCCC[C@H](NC(=O)OCC1CC1)C(=O)Nc1cccc(Br)c1
2. CC(C)Oc1cccc(NCc2cccc(/C=C/C(=O)NO)c2)c1
3. CCCC(=O)NC(CCCCC(=O)NO)C(=O)Nc1cccc(Br)c1 (centres unmarked)
4. CCOc1cccc(NCC2C=C(/C=C/C(=O)NO)CCC2)c1 (centres unmarked)

[2.77, 2.54, 2.62, 3.67]

----------
Experimental Target: MEF2D/HDAC4 protein-protein interactions (Homo sapiens (Human))
Experimental Details: Mammalian two-hybrid assay, inhibition of MEF2D and HDAC4 protein interactions (luciferase reporter in HeLa cells)
Measurement Context: HeLa cells co-transfected with GAL4-MEF2D, HDAC4-VP16 and Gal4Luc; overnight treatment; luciferase normalized to Renilla
Endpoint: IC50 (nM)
Numbers only, in nM.

Below: 7 molecules and their reported IC50.
> print(dat)
                                   molecule  test.result
1  O=C(/C=C/c1cccc(CNc2cccc(OC3CCCC3)c2)c1)NO         1180
2  O=C(CCCCC(NC(=O)c1cccnc1)C(=O)Nc1cccc(Br)c1)NO (centres unmarked)          680
3      O=C(/C=C/c1cccc(CNc2ccc(Cl)cc2)c1)NO          790
4  Nc1ccccc1NC(=O)/C=C/c1cccc(CNc2cccc(Br)c2)c1         5940
5  O=C(/C=C/c1cccc(CNc2nnc(C(F)(F)F)s2)c1)NO          320
6        Cc1coc(NCc2cccc(/C=C/C(=O)NO)c2)n1          640
7  CCC(=O)CNC(CCCCC(=O)NO)C(=O)Nc1cccc(Br)c1 (centres unmarked)         1250

Which measured IC50 value corresponds to `O=C(/C=C/c1cccc(CNc2cccc(OC3CCC3)c2)c1)NO` ? 670

Data provenance is patent US11230524B2.
